# ASSAY REMARKS: non-specific 3'UTR reporter inhibition in Clone20-Shn3RL – cell-based, Renilla luciferase, cherry-picked, counter-screen for Shn3 inhibitor project, dose response (AID 624133)
# Format: functional
Active and inactive are the calls of the source.

{"COMPOUND": "O=C1[C@H]2[C@@H](c3ccc(F)cc3)N3C(=O)N(c4ccccc4)C(=O)[C@@]3(Cc3ccccc3)[C@H]2C(=O)N1C1CCCCC1", "AC50": "31.3 µM (active)"}
{"COMPOUND": "CC(=O)N1c2ccc(S(=O)(=O)N3CCC(C(=O)Nc4cccc(F)c4)CC3)cc2CC1C (centres undefined)", "AC50": "12 µM (active)"}
{"COMPOUND": "O=C(c1ccccc1)C(CN1CCCCC1)c1ccccc1 (centres undefined)", "AC50": "5.56 µM (active)"}
{"COMPOUND": "COc1ccccc1NS(=O)(=O)c1cc(NC(=O)c2ccc(Cl)nc2)ccc1Cl", "AC50": "21 µM (active)"}

* * *

# MEASURED ON: Caspase-3 (Homo sapiens, UniProt P42574)
# Type: functional
Calls of active or inactive are those of the source.
Labels: label 1 = active, label 0 = inactive

{"MOLECULE": "CCOC(=O)C1=C(COC(=O)c2ccc([N+](=O)[O-])s2)NC(=O)NC1C (configuration not stated)", "LABEL": "label 1"}
{"MOLECULE": "Oc1cccc(/C=N/Nc2cc(N3CCCC3)nc(N3CCCC3)n2)c1", "LABEL": "label 0"}
{"MOLECULE": "Cc1csc2nc(CSc3nc4ccccc4o3)c(Br)n12", "LABEL": "label 1"}
{"MOLECULE": "COc1cc2c(C#N)c(N3CCCC3)nc(N)c2c(N)n1", "LABEL": "label 1"}
{"MOLECULE": "Cc1cccc(C(=O)Nc2scc(-c3ccc(Br)cc3)c2C(=O)O)c1", "LABEL": "label 1"}
{"MOLECULE": "Cc1cccc(-c2noc(C3CCCCC3)n2)c1", "LABEL": "label 1"}
{"MOLECULE": "Nc1c2c(nc3sc4c(c13)CCCCC4)CCCC2", "LABEL": "label 1"}

* * *

# MEASURED ON: Adenosylmethionine-8-amino-7-oxononanoate aminotransferase (Mycobacterium tuberculosis)
# Sequence (P9WQ81 whole entry): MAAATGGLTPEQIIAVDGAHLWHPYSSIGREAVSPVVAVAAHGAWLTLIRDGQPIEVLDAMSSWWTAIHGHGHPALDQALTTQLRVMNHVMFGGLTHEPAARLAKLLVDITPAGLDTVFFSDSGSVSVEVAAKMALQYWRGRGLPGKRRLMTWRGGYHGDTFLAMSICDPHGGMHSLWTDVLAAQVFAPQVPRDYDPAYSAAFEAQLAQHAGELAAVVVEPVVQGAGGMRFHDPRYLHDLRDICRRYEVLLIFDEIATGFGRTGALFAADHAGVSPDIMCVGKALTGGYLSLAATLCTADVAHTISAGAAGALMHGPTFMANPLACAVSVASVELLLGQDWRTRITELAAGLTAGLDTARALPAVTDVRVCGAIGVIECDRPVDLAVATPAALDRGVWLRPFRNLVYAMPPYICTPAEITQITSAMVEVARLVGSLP
# ASSAY REMARKS: Mycobacterium tuberculosis BioA enzyme inhibitor Measured in Biochemical System Using Plate Reader - 2163-02_Inhibitor_Dose_CherryPick_Activity.
# Format: functional, Mycobacterium tuberculosis UT205
Active and inactive are the calls of the source.
ATTRIBUTE MEASURED: AC50

{"MOLECULE": "COC(=O)c1c(C(=O)OC)c(-c2ccc(F)cc2)n2c1C[S+]([O-])C2 (stereo not given)", "MEASURED ON": "Adenosylmethionine-8-amino-7-oxononanoate aminotransferase (Mycobacterium tuberculosis)", "ENDPOINT RESULT": "10.3 µM (active)"}
{"MOLECULE": "C[C@H](CO)N1C[C@H](C)[C@@H](CN(C)Cc2ccc3c(c2)OCO3)Oc2ccc(NC(=O)Cn3cnnn3)cc2CC1=O", "MEASURED ON": "Adenosylmethionine-8-amino-7-oxononanoate aminotransferase (Mycobacterium tuberculosis)", "ENDPOINT RESULT": "13 µM (active)"}
{"MOLECULE": "NC(=O)c1ccc(Oc2cccc3cccnc23)c([N+](=O)[O-])c1", "MEASURED ON": "Adenosylmethionine-8-amino-7-oxononanoate aminotransferase (Mycobacterium tuberculosis)", "ENDPOINT RESULT": "2.3 µM (active)"}
{"MOLECULE": "COC(=O)C[C@@H]1CC[C@@H]2[C@H](COC[C@@H](O)CN2C(=O)Nc2cccc(F)c2)O1", "MEASURED ON": "Adenosylmethionine-8-amino-7-oxononanoate aminotransferase (Mycobacterium tuberculosis)", "ENDPOINT RESULT": "10 µM (active)"}
{"MOLECULE": "O=C(c1cccc(F)c1)N1CC[C@@H]2[C@H]1c1cc(-c3cccc(F)c3)ccc1N[C@@H]2CO", "MEASURED ON": "Adenosylmethionine-8-amino-7-oxononanoate aminotransferase (Mycobacterium tuberculosis)", "ENDPOINT RESULT": "5.94 µM (active)"}
